system: K562 CRISPRi cells; experiment: Constant region variant library pooled growth screen, K562; type: cell-based, human; conditions: sgRNA constant region variants; activity relative to the original, un-modified constant region cr995
Metric: Mean relative activity

Known Mean relative activity results, listed for orientation:
Molecule	Mean relative activity
cr781 (nucleic acid, listed as DNA, chemistry not fully specified) guide: GTTTAAGAGCTAAGCTGGAAACAGCATAGCAAGTTTAAATAAGGCTAGTCCGTTATCAACTTGAAAAAGTGGCACCGAGTCGGTCCT	0.8813
cr930 (nucleic acid, listed as DNA, chemistry not fully specified) guide: GTTTAAGAGCTAAGCTGGAAACAGCATAGCATGTTTAAATAAGGCTAGGCCGTTATTAACTTGAAAAAGTGGCACCGAGTCGGTGCT	0.001721
cr981 (nucleic acid, listed as DNA, chemistry not fully specified) guide: GTTTAAGAGCTAAGCTGGAAACAGCATAGCAAGTTTAAATAACGCTAGTCGGTTATCAACTGGAAACAGTGGCACCGAGTCGGTGCT	0.003266

Next up:
Query: I am curious: what Mean relative activity value has been reported for cr641 (nucleic acid, listed as DNA, chemistry not fully specified) guide: GTTTAAGAGCTAAGCTGGAAACAGCATAGCAAGGTTAAATAAGGCTAGTCCGTTATCAACTTGAAAAAGTGGCACCGAGTCGGTGCT ?
Result: 0.02687

Source: patent US20220259593A1
